- assay: Equilibrium solubility of azithromycin forms in granulating liquids (HPLC-UV)
- cond: 48 hours, water
measurementKind: solubility (mgA/mL)
Kindly provide the numeric value in mgA/mL only, without the unit symbol.

If you can, please state the reported solubility value of CCC1OC(=O)C(C)C(O[C@H]2C[C@@](C)(OC)[C@@H](O)C(C)O2)C(C)[C@@H](OC2OC(C)CC(N(C)C)[C@H]2O)[C@@](C)(O)C[C@@H](C)CN(C)[C@H](C)[C@@H](O)[C@]1(C)O (some centres unmarked) [form F] .
0.21

// below: solubility requested for another compound
For CC[C@H]1OC(=O)[C@H](C)[C@@H](O[C@H]2C[C@@](C)(OC)[C@@H](O)[C@H](C)O2)[C@H](C)[C@@H](O[C@@H]2O[C@H](C)C[C@H](N(C)C)[C@H]2O)[C@](C)(O)C[C@@H](C)CN(C)[C@H](C)[C@@H](O)[C@]1(C)O [form A, reference compound] , what is its reported solubility?
0.14

----------
- assay: Equilibrium solubility of azithromycin forms in granulating liquids (HPLC-UV)
- cond: 48 hours, EtOH 100% neat
Recorded solubility for the following compounds
Report the value in mgA/mL with no unit label.

What value of solubility has been reported for the following compound? CC[C@H]1OC(=O)[C@H](C)[C@@H](O[C@H]2C[C@@](C)(OC)[C@@H](O)[C@H](C)O2)[C@H](C)[C@@H](O[C@@H]2O[C@H](C)C[C@H](N(C)C)[C@H]2O)[C@](C)(O)C[C@@H](C)CN(C)[C@H](C)[C@@H](O)[C@]1(C)O [form N, azithromycin]
225.78

Would you kindly share the measured solubility for CCC1OC(=O)C(C)C(O[C@H]2C[C@@](C)(OC)[C@@H](O)C(C)O2)C(C)[C@@H](OC2OC(C)CC(N(C)C)[C@H]2O)[C@@](C)(O)C[C@@H](C)CN(C)[C@H](C)[C@@H](O)[C@]1(C)O (some centres unmarked) [form F] ?
229.87

Any idea what solubility was measured for CC[C@H]1OC(=O)[C@H](C)[C@@H](O[C@H]2C[C@@](C)(OC)[C@@H](O)[C@H](C)O2)[C@H](C)[C@@H](O[C@@H]2O[C@H](C)C[C@H](N(C)C)[C@H]2O)[C@](C)(O)C[C@@H](C)CN(C)[C@H](C)[C@@H](O)[C@]1(C)O [form A, reference compound] ?
211.59

May I ask what solubility has been recorded for CCC1OC(=O)C(C)C(O[C@H]2C[C@@](C)(OC)[C@@H](O)C(C)O2)C(C)[C@@H](OC2OC(C)CC(N(C)C)[C@H]2O)[C@@](C)(O)C[C@@H](C)CN(C)[C@H](C)[C@@H](O)[C@]1(C)O (some centres unmarked) [form M] ?
222.38

Returns the measured solubility for the input compound. Input: CCC1OC(=O)C(C)C(O[C@H]2C[C@@](C)(OC)[C@@H](O)C(C)O2)C(C)[C@@H](OC2OC(C)CC(N(C)C)[C@H]2O)[C@@](C)(O)C[C@@H](C)CN(C)[C@H](C)[C@@H](O)[C@]1(C)O (some centres unmarked) [form J]
208.99

----------
The entries below are paired with their reported solubility.
- assay: Equilibrium solubility of azithromycin forms in granulating liquids (HPLC-UV)
- cond: 24 hours, EtOH 100% neat
Just the number please, in mgA/mL, no unit attached.

Solved cases below.
Any idea what solubility was measured for CCC1OC(=O)C(C)C(O[C@H]2C[C@@](C)(OC)[C@@H](O)C(C)O2)C(C)[C@@H](OC2OC(C)CC(N(C)C)[C@H]2O)[C@@](C)(O)C[C@@H](C)CN(C)[C@H](C)[C@@H](O)[C@]1(C)O (some centres unmarked) [form J] ?
224.77

I am curious: what solubility value has been reported for CC[C@H]1OC(=O)[C@H](C)[C@@H](O[C@H]2C[C@@](C)(OC)[C@@H](O)[C@H](C)O2)[C@H](C)[C@@H](O[C@@H]2O[C@H](C)C[C@H](N(C)C)[C@H]2O)[C@](C)(O)C[C@@H](C)CN(C)[C@H](C)[C@@H](O)[C@]1(C)O [form A, reference compound] ?
219.74

Name the recorded solubility for CCC1OC(=O)C(C)C(O[C@H]2C[C@@](C)(OC)[C@@H](O)C(C)O2)C(C)[C@@H](OC2OC(C)CC(N(C)C)[C@H]2O)[C@@](C)(O)C[C@@H](C)CN(C)[C@H](C)[C@@H](O)[C@]1(C)O (some centres unmarked) [form M] .
211.38

***
Please report the recorded solubility for CC[C@H]1OC(=O)[C@H](C)[C@@H](O[C@H]2C[C@@](C)(OC)[C@@H](O)[C@H](C)O2)[C@H](C)[C@@H](O[C@@H]2O[C@H](C)C[C@H](N(C)C)[C@H]2O)[C@](C)(O)C[C@@H](C)CN(C)[C@H](C)[C@@H](O)[C@]1(C)O [form N, azithromycin] .
228.14

Entry CCC1OC(=O)C(C)C(O[C@H]2C[C@@](C)(OC)[C@@H](O)C(C)O2)C(C)[C@@H](OC2OC(C)CC(N(C)C)[C@H]2O)[C@@](C)(O)C[C@@H](C)CN(C)[C@H](C)[C@@H](O)[C@]1(C)O (some centres unmarked) [form F] : reported solubility = ?
228.34
